OBSERVABLE: melting point

Some solved cases for reference:
# MOLECULE, melting point
measured = [
    ("CNc1ncc2c(-c3cccc(Cl)c3)cc(-c3cccc(C(=O)O)c3)c(OC)c2n1", "270 °C"),
    ("CCOC(=O)c1c[nH]nc1-c1ccc(Cl)cc1", "95 to 100 °C"),
    ("COC(=O)c1ccc(OC)nc1SCc1ccccc1", "67 to 71 °C"),
    ("CC(C)(OC(=O)CCc1nc(-c2ccc(Cl)cc2)co1)c1ccccc1", "94 to 95 °C"),
    ("CCOC(=O)OCC(F)(F)Cn1nc(C)c(-c2ccc3c(c2)NC(=O)CO3)c1-c1ccc(F)cc1", "142 °C"),
    ("Cc1oc(-c2ccccc2)nc1COc1cccc(COc2cncc(CO)c2)c1", "145 to 146 °C"),
]

Fill blank: measured melting point of the molecule C[C@H](C(=O)O)n1ccn(-c2ccc(OCC(F)(F)C(F)F)cc2)c1=O is ____. 149 to 151 °C

Fill blank: measured melting point of the molecule CS(=O)CCNC(=O)c1cccc(-c2ccc3c(c2)C(c2ccc(Cl)cc2Cl)CC3)c1 (centres undefined) is ____. 112 to 113 °C

Fill blank: measured melting point of the molecule CS(=O)c1c(C(=N)NO)nn(-c2c(Cl)cc(C(F)(F)F)cc2Cl)c1N (centres undefined) is ____. 225 to 226 °C

---

OBSERVABLE: melting point

Some solved cases for reference:
# MOLECULE, melting point
rows = [
    ("O=C(Nc1cccc2ccccc12)OCCCC(=O)c1ccccc1", "95 to 97 °C"),
    ("CN1Cc2c(C#CC(C)(C)O)ncn2-c2cccc(Cl)c2C1=O", "194 to 195 °C"),
    ("COc1ccc(Oc2c(C)cc(N)cc2C)cc1C(C)C", "95 to 100 °C"),
    ("COC(=O)/C=C/C1=C(c2ccc(OC)cc2)c2ccc(OC)cc2CC1", "116 to 118 °C"),
    ("Cc1cc(C)cc(C(=O)N2CCN(C(=O)CNC3CN4CC3CC4Cc3ccccc3)C(c3ccc(Cl)c(Cl)c3)C2)c1 (stereo not given)", "69 to 71 °C"),
    ("O=[N+]([O-])c1c(Br)cccc1CS(=O)(=O)c1ccccc1", "138 to 141 °C"),
    ("CCOC(=O)C1CC(O)c2c(C)c(O)c(C)c(C)c2O1 (stereo not given)", "138 to 144 °C"),
    ("O=C1CCC(O)(c2ccccc2Cc2ccccc2)CC1", "138 to 140 °C"),
    ("O=C(/C=C/C=C/C(=O)NCCCOc1cccc(CN2CCCC2)c1)NCCCOc1cccc(CN2CCCC2)c1", "178 to 180 °C"),
]

Next molecule, please.
Fill blank: measured melting point of the molecule CSc1ccc(/C=C2\C=C(CCN(O)C(N)=O)c3ccccc32)cc1 is ____. 175 to 176 °C

---

Below is a list of entries, each paired with its recorded melting point value.

# COMPOUND, OBSERVABLE, RESULT
data = [
    ("NC(=O)[C@@H]1CCCN1C(=O)CNC(=O)OCc1ccccc1", "melting point", "142 to 143 °C"),
    ("COc1cc(C=O)cc(I)c1OCc1ccccc1", "melting point", "53 to 54 °C"),
    ("CSc1nc(OCC(F)(F)F)nc2sc(C)cc12", "melting point", "97 °C"),
    ("Clc1cc2c(nc1-c1ccccc1Br)OCC2", "melting point", "106 to 117 °C"),
    ("Cc1cc(N(C)C)nc(N)n1", "melting point", "172 to 174 °C"),
]

Fill blank: measured melting point of the compound COc1ccc(C2(O)CCN(CC(O)c3ccc(OCc4ccccc4)cc3)CC2)cn1 (stereo unspecified) is ____. 199 °C
